Measured values drawn from paper PMC9950143 for this set.

# assay.details: in vitro
# study.conditions: human
endpoint.name: CC50

// CC50 value for NC(=O)c1nc(F)c[nH]c1=O : > 750 µM

----------
# assay.details: Cytotoxicity in HBV assay
# study.conditions: human, HepG2-NTCP cells (clone HY12), HBV-infected
endpoint.name: CC50 at 5 days (µM)
Answer with a number only, understood to be in µM.

// CC50 at 5 days value for CCC(CC)COC(=O)[C@H](C)N[P@](=O)(OC[C@H]1O[C@@](C#N)(c2ccc3c(N)ncnn23)[C@H](O)[C@@H]1O)Oc1ccccc1 : 7.4

----------
List of pEC50 values.
# Test system: SUDV Boniface
# assay.details: microbe, parasite or virus in culture
# Assay type: cell-based, Sudan virus
# study.conditions: Sudan ebolavirus, HeLa, read-out: Activity against SUDV EC50
Give only the number. pEC50 is defined as minus log10 of concentration in molar units.

Examples with answers:
* CCCCN(CCCC)CC(O)c1cc(Cl)cc2c1-c1ccc(Cl)cc1/C2=C/c1ccc(Cl)cc1 (stereo not drawn) | 5.02
* Cc1cccc(C)c1OCC(=O)N[C@@H](Cc1ccccc1)[C@@H](O)C[C@H](Cc1ccccc1)NC(=O)[C@H](C(C)C)N1CCCNC1=O | 5.63

// pEC50 value for O=C1Nc2ccc(Cl)cc2[C@@](C#CC2CC2)(C(F)(F)F)O1 : 5.65
